Source of measurements: the supplement of paper PMC10065799

# phosphorylation enrichment values compiled below
- EXPERIMENTAL_SYSTEM: EPHB1 (UniProt P54762)
- Sequence (P54762 whole entry, looked up): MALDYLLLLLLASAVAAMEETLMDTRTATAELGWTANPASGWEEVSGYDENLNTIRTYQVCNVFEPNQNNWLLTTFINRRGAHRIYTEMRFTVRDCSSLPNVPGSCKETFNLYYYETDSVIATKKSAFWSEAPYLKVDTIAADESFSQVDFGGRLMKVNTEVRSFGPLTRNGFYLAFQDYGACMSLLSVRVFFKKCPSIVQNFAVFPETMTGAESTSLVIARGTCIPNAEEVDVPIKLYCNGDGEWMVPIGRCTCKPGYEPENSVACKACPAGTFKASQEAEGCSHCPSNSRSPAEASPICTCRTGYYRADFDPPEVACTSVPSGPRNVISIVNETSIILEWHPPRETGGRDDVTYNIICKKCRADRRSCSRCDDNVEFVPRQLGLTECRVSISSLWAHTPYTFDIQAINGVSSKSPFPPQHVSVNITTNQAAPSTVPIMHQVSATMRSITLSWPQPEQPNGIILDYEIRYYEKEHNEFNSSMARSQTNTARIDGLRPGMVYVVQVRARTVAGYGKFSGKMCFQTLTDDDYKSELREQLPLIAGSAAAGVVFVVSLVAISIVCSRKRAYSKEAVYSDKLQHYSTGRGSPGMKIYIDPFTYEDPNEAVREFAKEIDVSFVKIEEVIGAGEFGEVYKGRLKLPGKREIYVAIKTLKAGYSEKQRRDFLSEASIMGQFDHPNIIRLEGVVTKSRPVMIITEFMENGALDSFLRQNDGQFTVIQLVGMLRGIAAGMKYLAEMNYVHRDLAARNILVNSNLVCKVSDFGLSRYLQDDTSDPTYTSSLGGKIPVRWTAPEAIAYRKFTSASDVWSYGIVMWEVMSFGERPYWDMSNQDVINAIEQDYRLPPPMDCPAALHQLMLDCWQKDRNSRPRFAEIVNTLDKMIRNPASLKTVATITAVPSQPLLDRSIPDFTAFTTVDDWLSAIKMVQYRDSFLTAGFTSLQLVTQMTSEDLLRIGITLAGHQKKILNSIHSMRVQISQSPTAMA
- ASSAY_OVERVIEW: phosphorylation enrichment, bacterial display (enrichment ratio); higher = better substrate or ligand; peptides without Tyr show the background;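 further: 11-residue human phosphosite peptides and single-mutation variants displayed on the E. coli surface, counted by deep sequencing, each peptide's frequency after selection divided by its frequency in the unselected input library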;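 further: frequency after pTyr selection over input frequency; kinase dosed for 20-30% of maximal phosphorylation in three min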
Just the number.

Example cases with answers are listed next.
{"ORDERED_RESIDUES": "SVTCTYSPAPN [TP53_Y126_L130P]", "ENDPOINT_VALUE": 0.517}
{"ORDERED_RESIDUES": "RAILNYIASKY [GSTA3_Y74]", "ENDPOINT_VALUE": 0.665}
{"ORDERED_RESIDUES": "LNPDGYKKAYE [CPXM2_Y427_E428K]", "ENDPOINT_VALUE": 0.605}

Lab request: please report phosphorylation enrichment under test system EPHB1 (UniProt P54762) for FGEFRYRSVIK [CFTR_Y517_D513G_YF]
0.558

Lab note: need phosphorylation enrichment for EVDELYREAPI [MYL12B_Y143] on EPHB1 (UniProt P54762), anyone have it?
0.784

# value lookup — system EPHB1 (UniProt P54762), readout phosphorylation enrichment, item CTTIHYNYMCH [TP53_Y234_N239H]
0.724

Give EPHB1 (UniProt P54762) phosphorylation enrichment for LFQAKYQIRFR [CRLF1_Y272_YF]
0.698

====

- EXPERIMENTAL_SYSTEM: FGFR1 (UniProt P11362)
- Sequence (P11362 whole entry, looked up): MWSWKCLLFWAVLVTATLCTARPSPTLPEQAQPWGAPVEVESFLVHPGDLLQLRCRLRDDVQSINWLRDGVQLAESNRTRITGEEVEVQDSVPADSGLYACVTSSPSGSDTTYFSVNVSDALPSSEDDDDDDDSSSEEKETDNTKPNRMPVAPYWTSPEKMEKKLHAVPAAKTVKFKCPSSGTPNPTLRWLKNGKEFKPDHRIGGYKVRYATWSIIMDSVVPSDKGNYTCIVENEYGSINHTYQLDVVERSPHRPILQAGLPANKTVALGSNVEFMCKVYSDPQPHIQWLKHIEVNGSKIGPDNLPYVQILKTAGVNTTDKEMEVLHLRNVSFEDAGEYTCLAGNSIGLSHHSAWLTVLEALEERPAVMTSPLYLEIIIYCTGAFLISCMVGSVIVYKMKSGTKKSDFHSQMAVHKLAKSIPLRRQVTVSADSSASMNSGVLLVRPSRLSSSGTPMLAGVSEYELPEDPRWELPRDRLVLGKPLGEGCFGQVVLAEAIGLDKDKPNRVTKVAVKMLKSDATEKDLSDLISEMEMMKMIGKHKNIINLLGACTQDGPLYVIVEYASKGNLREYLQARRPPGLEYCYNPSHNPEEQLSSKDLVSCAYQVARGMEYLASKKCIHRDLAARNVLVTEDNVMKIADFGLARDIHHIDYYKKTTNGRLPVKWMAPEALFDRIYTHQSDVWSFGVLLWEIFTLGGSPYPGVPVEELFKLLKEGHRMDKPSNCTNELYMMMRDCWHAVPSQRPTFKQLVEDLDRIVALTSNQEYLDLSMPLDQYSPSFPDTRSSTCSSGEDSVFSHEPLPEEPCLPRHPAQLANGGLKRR
- ASSAY_OVERVIEW: phosphorylation enrichment, bacterial display (enrichment ratio); higher = better substrate or ligand; peptides without Tyr show the background
TEST_READOUT: phosphorylation enrichment
Keep it simple and answer with nothing but the number.

{"ORDERED_RESIDUES": "KLCHLYQDHMQ [WNT5A_Y86]", "phosphorylation enrichment": 0.44}
{"ORDERED_RESIDUES": "EGNEQYEGFCV [GRIA3_Y451_R450Q_YF]", "phosphorylation enrichment": 0.618}
{"ORDERED_RESIDUES": "TESALYGCTIL [MAP3K21_Y724_V728I]", "phosphorylation enrichment": 0.5}
{"ORDERED_RESIDUES": "VRFMANTDETF [F8_Y450_Y450N]", "phosphorylation enrichment": 0.439}
{"ORDERED_RESIDUES": "QEVLEYFMKQM [PIK3CA_Y1038_A1035V]", "phosphorylation enrichment": 0.954}

May I ask what phosphorylation enrichment has been recorded for ITNLLYHVVGG [GBA_Y412_W417G] ?
6.43

# get_value(readout='phosphorylation enrichment', item= STTSDYQWDFS [MTDH_Y364_V368F] )
1.24

====

- EXPERIMENTAL_SYSTEM: FGFR1 (UniProt P11362)
- ASSAY_OVERVIEW: phosphorylation enrichment, bacterial display (enrichment ratio); higher = better substrate or ligand; peptides without Tyr show the background
TEST_READOUT: phosphorylation enrichment
Returns: the value as a bare number; no unit string appended.

Example cases with answers are listed next.
{"ORDERED_RESIDUES": "RSAGKYDVYLI [MECP2_Y120]", "phosphorylation enrichment": 0.433}
{"ORDERED_RESIDUES": "KEDPEYKKKFR [FAM161A_Y278_E273K]", "phosphorylation enrichment": 0.534}
{"ORDERED_RESIDUES": "FRDMDYRSFPH [RBM10_Y41_R46H_YF]", "phosphorylation enrichment": 0.577}
{"ORDERED_RESIDUES": "YGIAQYCCRMG [LRRK2_Y2023]", "phosphorylation enrichment": 0.605}
{"ORDERED_RESIDUES": "IRFPPYTDWNQ [ALDH3B2_Y365_H361R_YF]", "phosphorylation enrichment": 0.54}

Any idea what phosphorylation enrichment was measured for SVVVTYEPPEV [TP53_Y220_P219T] ?
0.493

Could you share which phosphorylation enrichment value was measured for RPCVVYGGADI [DDX3X_Y301] ?
0.715

Item under review: CGSLLYGLVHQ [PRKCG_Y122] . Reported phosphorylation enrichment?
0.545

Fill in: phosphorylation enrichment of KDDEKYLDVIR [MTM1_Y260] is ___
0.453

Consider the sequence PNAYIYVVQLP [L1CAM_Y420_A415P] and give its measured phosphorylation enrichment.
1.6

====

- Test system: c-Src
- ASSAY_OVERVIEW: phosphorylation enrichment, bacterial display (enrichment ratio); higher = better substrate or ligand; peptides without Tyr show the background
# phosphorylation enrichment listing for each entry below

Known phosphorylation enrichment results, listed for orientation:
{"ORDERED_RESIDUES": "GGEEFYVHFVG [KAT8_Y90_R86G_YF]", "phosphorylation enrichment": 0.501}
{"ORDERED_RESIDUES": "AEFGLYAAMVR [VSX2_Y222_G223A_YF]", "phosphorylation enrichment": 2.17}

Tell me reported phosphorylation enrichment for FPKDVYVDSKD [NDUFAF4_Y69_L65P] , tested with c-Src.
0.416

Observed phosphorylation enrichment on c-Src for TEALFYTDDPA [ADPRS_Y75_T79P_YF] , please.
0.797

Short answer please: phosphorylation enrichment, c-Src, entry KELSSYKHLTL [SLIT2_Y776_N775S]
0.451

phosphorylation enrichment of PPAPRCHHSAV [LZTR1_Y119_Y119C] on c-Src?
0.718

Lab request: please report phosphorylation enrichment under test system c-Src for HFEDGYPGGSD [CTNND1_Y221_YF]
0.514

Value wanted: phosphorylation enrichment (c-Src) of entry HSYNSYTYPRL [PAK5_Y316]
0.652

====

- EXPERIMENTAL_SYSTEM: EPHB2 (UniProt P29323)
- Sequence (P29323 whole entry, looked up): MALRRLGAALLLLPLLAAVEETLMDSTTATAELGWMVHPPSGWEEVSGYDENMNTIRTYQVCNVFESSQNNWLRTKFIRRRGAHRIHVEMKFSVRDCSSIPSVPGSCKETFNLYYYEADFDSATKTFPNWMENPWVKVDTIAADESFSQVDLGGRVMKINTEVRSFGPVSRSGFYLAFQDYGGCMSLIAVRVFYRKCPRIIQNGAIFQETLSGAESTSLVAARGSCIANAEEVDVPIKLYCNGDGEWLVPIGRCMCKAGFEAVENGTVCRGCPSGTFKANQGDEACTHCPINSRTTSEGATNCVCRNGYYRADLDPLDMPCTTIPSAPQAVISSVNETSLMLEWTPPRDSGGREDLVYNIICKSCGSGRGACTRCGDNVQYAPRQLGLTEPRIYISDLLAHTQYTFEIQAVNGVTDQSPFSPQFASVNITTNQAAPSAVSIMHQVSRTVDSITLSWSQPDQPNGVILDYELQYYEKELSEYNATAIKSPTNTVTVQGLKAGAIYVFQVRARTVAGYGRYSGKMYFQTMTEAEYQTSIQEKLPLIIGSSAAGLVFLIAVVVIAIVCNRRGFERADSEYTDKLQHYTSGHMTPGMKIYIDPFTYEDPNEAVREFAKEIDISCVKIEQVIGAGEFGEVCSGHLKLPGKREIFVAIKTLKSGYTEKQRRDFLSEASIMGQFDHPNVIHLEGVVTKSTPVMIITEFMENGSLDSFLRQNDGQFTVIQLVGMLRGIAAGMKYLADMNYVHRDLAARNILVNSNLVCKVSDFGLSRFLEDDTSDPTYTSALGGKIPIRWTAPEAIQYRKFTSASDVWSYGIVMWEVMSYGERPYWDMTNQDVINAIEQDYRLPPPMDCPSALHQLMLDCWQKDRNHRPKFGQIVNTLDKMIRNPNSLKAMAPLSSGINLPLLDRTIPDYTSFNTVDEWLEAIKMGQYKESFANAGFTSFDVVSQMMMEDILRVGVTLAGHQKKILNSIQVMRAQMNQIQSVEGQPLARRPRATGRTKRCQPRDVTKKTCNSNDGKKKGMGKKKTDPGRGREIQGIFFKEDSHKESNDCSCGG
- ASSAY_OVERVIEW: phosphorylation enrichment, bacterial display (enrichment ratio); higher = better substrate or ligand; peptides without Tyr show the background
TEST_READOUT: phosphorylation enrichment
Give the figure only, with no unit attached.

Would you kindly share the measured phosphorylation enrichment for ATATEYHTTSH [SLC4A1_Y46_D45E] ?
0.55

====

- EXPERIMENTAL_SYSTEM: Fes (UniProt P07332)
- Sequence (P07332 whole entry, looked up): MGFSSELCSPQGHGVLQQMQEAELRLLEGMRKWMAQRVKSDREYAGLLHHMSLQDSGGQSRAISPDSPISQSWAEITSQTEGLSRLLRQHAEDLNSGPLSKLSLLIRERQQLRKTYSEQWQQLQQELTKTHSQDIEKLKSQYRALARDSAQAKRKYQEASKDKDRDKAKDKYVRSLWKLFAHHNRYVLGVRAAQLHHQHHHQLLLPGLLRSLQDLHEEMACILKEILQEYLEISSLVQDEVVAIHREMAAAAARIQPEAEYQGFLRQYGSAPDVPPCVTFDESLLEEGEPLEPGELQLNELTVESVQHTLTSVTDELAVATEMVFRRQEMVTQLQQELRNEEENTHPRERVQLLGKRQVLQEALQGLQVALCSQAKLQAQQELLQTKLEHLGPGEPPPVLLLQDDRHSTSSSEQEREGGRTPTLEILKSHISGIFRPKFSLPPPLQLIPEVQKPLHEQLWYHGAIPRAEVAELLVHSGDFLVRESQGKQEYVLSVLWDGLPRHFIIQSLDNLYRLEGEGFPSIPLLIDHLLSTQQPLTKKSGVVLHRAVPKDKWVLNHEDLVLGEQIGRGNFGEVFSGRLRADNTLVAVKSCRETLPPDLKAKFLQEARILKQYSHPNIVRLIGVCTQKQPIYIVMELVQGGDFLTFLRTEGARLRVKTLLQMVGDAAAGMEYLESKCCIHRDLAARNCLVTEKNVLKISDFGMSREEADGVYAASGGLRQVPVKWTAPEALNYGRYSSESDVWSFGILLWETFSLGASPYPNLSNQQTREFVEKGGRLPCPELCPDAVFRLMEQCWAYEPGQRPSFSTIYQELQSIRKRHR
- ASSAY_OVERVIEW: phosphorylation enrichment, bacterial display (enrichment ratio); higher = better substrate or ligand; peptides without Tyr show the background
Catalogue of phosphorylation enrichment readings, one per entry.

{"ORDERED_RESIDUES": "ENGPFYTSFPP [GDAP2_Y488_YF]", "phosphorylation enrichment": 1.04}

Would you mind telling me what phosphorylation enrichment value was observed for FGEFRYRSVIK [CFTR_Y517_D513G_YF] ?
0.891

Return reported phosphorylation enrichment; argument: KDAGDYKYKAK [LRIT3_Y326_C328Y]
0.604

Look up phosphorylation enrichment for this sequence: YTNELYMMMRD [FGFR1_Y730_C725Y]
1.35

Entry STTSDYQWDFS [MTDH_Y364_V368F] has what phosphorylation enrichment?
1.1

Given the sequence QKFMAYLSQGW [HLCS_Y236_G241W] , what is its reported phosphorylation enrichment?
1.32

Record request: phosphorylation enrichment value, item YSIDHYLGKEM [G6PD_Y202_R198S]
0.671

====

- EXPERIMENTAL_SYSTEM: Jak2 (UniProt O60674)
- Sequence (O60674 whole entry, looked up): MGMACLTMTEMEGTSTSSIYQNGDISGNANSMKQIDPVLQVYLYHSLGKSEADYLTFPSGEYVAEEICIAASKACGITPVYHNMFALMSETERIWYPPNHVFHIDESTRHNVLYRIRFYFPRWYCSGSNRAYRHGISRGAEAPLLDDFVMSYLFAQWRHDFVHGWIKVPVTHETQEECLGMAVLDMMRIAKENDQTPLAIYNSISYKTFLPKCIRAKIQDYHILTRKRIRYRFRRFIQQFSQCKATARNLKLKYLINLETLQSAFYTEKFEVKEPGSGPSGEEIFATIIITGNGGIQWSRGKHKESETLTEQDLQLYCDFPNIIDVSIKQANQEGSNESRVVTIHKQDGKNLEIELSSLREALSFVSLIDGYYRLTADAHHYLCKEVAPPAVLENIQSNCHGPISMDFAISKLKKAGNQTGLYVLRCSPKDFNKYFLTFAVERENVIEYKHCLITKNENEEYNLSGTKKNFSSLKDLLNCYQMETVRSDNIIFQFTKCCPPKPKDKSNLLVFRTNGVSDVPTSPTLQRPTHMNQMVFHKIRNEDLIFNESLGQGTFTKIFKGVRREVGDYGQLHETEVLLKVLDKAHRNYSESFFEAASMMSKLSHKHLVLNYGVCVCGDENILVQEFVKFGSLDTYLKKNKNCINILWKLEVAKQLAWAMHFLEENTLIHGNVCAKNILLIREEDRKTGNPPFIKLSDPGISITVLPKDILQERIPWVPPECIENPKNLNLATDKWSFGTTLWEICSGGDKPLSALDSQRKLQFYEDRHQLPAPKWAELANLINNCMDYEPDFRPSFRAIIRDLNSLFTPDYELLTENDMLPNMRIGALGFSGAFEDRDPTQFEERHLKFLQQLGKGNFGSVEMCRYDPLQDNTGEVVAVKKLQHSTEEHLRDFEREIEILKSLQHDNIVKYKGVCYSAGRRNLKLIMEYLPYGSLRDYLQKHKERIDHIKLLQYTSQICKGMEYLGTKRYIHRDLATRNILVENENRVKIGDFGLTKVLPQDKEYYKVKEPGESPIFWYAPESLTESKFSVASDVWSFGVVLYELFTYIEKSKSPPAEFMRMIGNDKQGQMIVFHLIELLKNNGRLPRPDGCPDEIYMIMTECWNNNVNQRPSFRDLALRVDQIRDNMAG
- ASSAY_OVERVIEW: phosphorylation enrichment, bacterial display (enrichment ratio); higher = better substrate or ligand; peptides without Tyr show the background
Measured phosphorylation enrichment by item

Reference set (3 entries):
{"ORDERED_RESIDUES": "CGQDPCIRELG [UROS_Y19_Y19C]", "phosphorylation enrichment": 0.821}
{"ORDERED_RESIDUES": "SEELHYYVQNH [UQCRC2_Y207_F208Y]", "phosphorylation enrichment": 1.68}
{"ORDERED_RESIDUES": "TEALFYTDDPA [ADPRS_Y75_T79P_YF]", "phosphorylation enrichment": 1.65}

--- query ---
Look up phosphorylation enrichment: RPPFTYATLIH [FOXP3_Y342_R347H]
0.933

====

- EXPERIMENTAL_SYSTEM: EPHB1 (UniProt P54762)
- ASSAY_OVERVIEW: phosphorylation enrichment, bacterial display (enrichment ratio); higher = better substrate or ligand; peptides without Tyr show the background
TEST_READOUT: phosphorylation enrichment

Solved cases (2 shown):
{"ORDERED_RESIDUES": "DLITAYRAHGF [PDHA1_Y118_H113D]", "TEST_READOUT": "phosphorylation enrichment", "ENDPOINT_VALUE": 0.409}
{"ORDERED_RESIDUES": "GIVEDYRPRFF [ACVRL1_Y421_P424R_YF]", "TEST_READOUT": "phosphorylation enrichment", "ENDPOINT_VALUE": 0.616}

Would you kindly share the measured phosphorylation enrichment for GGMTEYNLVVV [KRAS_Y4_K5N] ?
0.642

Please report the recorded phosphorylation enrichment for PDDPDYSLVDD [PSTPIP2_Y323_N322D] .
1.13

I have this sequence here, IAAEYYDNLPH [DEGS1_Y284] , and I need its recorded phosphorylation enrichment.
0.797

Consider the sequence shown here: SSNPEYLSASD [INSR_Y999] What is its recorded phosphorylation enrichment?
0.514

Can you share its phosphorylation enrichment? I mean this sequence: DDKEYYSVHNK [MET_Y1235_Y1230D]
0.563
